Provenance of the data: patent US20060264411A1

- testProtocol: Bladder concentrations in rats after oral dose
- experimentalContext: rat, in vivo; rats; 50 mg/kg oral, single bolus in 50% Labrasol; at 24 hours; read-out: concentration in the bladder
metric: concentration at 24 h

Please fill in: concentration at 24 h reported for C[C@H]1[C@H](C)CC[C@]2(C(=O)O)CC[C@]3(C)C(=CC[C@@H]4[C@@]5(C)C[C@@H](O)[C@H](O)[C@@](C)(CO)[C@@H]5[C@H](O)C[C@]43C)[C@H]12 = ~30000 ng/g
